Values were extracted from the NIST ThermoML archive (doi:10.1021/je800653d).

Recorded speed of sound, one value per entry.
- CONDITION_LABEL: 298.15 K; 101 kPa; Liquid; Linear variable-path acoustic interferometer
± gives the expanded uncertainty stated by the source.

Sample answers from the record:
COMPOUND | speed of sound
CCCOC(C)=O [propyl ethanoate] | 1156 ± 5 m/s
O=S1(=O)CCCC1 | 1601 ± 7 m/s
CCOC(C)=O [ethyl acetate] | 1142 ± 5 m/s

Shifting focus to the compound that follows.
Would you kindly share the measured speed of sound for CCCCOC(C)=O [butyl ethanoate] ?
1203 ± 5 m/s

====

Recorded mass density, one value per entry.
- CONDITION_LABEL: 308.15 K; 101 kPa; Liquid
Field: numeric (kg/m3). Do not append units.

MOLECULE | ENDPOINT_VALUE
CCCOC(C)=O [propyl ethanoate] | 873.1
CCCCOC(C)=O [butyl ethanoate] | 867.1
CCOC(C)=O [ethyl acetate] | 883.9

Would you kindly share the measured mass density for `O=S1(=O)CCCC1` ?
1257

====

Recorded mass density, one value per entry.
- CONDITION_LABEL: 303.15 K; 101 kPa; Liquid
Field: numeric (kg/m3). Do not append units.

Sample answers from the record:
COMPOUND | MEASUREMENT_LABEL | ENDPOINT_VALUE
CCOC(C)=O [ethyl acetate] | mass density | 889.4
CCCCOC(C)=O [butyl ethanoate] | mass density | 871.6
O=S1(=O)CCCC1 | mass density | 1261.8

Shifting focus to the compound that follows.
Would you kindly share the measured mass density for CCCOC(C)=O [propyl ethanoate] ?
877.7

====

- CONDITION_LABEL: 313.15 K; 101 kPa; Liquid; Linear variable-path acoustic interferometer
Recorded speed of sound, one value per entry.
Field: numeric (m/s). Do not append units.

Sample answers from the record:
COMPOUND | MEASUREMENT_UNITS | speed of sound
CCOC(C)=O [ethyl acetate] | m/s | 1082
CCCOC(C)=O [propyl ethanoate] | m/s | 1126
O=S1(=O)CCCC1 | m/s | 1558

Shifting focus to the compound that follows.
Would you kindly share the measured speed of sound for CCCCOC(C)=O [butyl ethanoate] ?
1135

====

- CONDITION_LABEL: 313.15 K; 101 kPa; Liquid; Capillary tube (Ostwald / Ubbelohde) method
MEASUREMENT_LABEL: viscosity (mPa·s)
Field: numeric (mPa·s). Do not append units.

Sample answers from the record:
MOLECULE | ENDPOINT_VALUE
CCCCOC(C)=O [butyl ethanoate] | 0.534
CCCOC(C)=O [propyl ethanoate] | 0.4329
O=S1(=O)CCCC1 | 7.837

Would you kindly share the measured viscosity for CCOC(C)=O [ethyl acetate] ?
0.3426

====

Recorded mass density, one value per entry.
- CONDITION_LABEL: 313.15 K; 101 kPa; Liquid
Field: numeric (kg/m3). Do not append units.

Sample answers from the record:
COMPOUND | mass density / kg/m3
CCOC(C)=O [ethyl acetate] | 875.8
O=S1(=O)CCCC1 | 1251.6
CCCCOC(C)=O [butyl ethanoate] | 862

Would you kindly share the measured mass density for CCCOC(C)=O [propyl ethanoate] ?
866.7

====

- CONDITION_LABEL: 303.15 K; 101 kPa; Liquid; Capillary tube (Ostwald / Ubbelohde) method
MEASUREMENT_LABEL: viscosity (mPa·s)
Field: numeric (mPa·s). Do not append units.

COMPOUND | viscosity (mPa·s)
O=S1(=O)CCCC1 | 10.03
CCCCOC(C)=O [butyl ethanoate] | 0.6072
CCCOC(C)=O [propyl ethanoate] | 0.4878

Shifting focus to the compound that follows.
Would you kindly share the measured viscosity for CCOC(C)=O [ethyl acetate] ?
0.3806

====

Recorded speed of sound, one value per entry.
- CONDITION_LABEL: 303.15 K; 101 kPa; Liquid; Linear variable-path acoustic interferometer
± gives the expanded uncertainty stated by the source.
The reply should read as a number followed by its unit.

COMPOUND | speed of sound
O=S1(=O)CCCC1 [sulfolane] | 1588 ± 7 m/s
CCCOC(C)=O [propyl ethanoate] | 1149 ± 5 m/s
CCCCOC(C)=O [butyl ethanoate] | 1176 ± 5 m/s

Shifting focus to the compound that follows.
Would you kindly share the measured speed of sound for CCOC(C)=O [ethyl acetate] ?
1122 ± 5 m/s

====

- CONDITION_LABEL: 298.15 K; 101 kPa; Liquid
Recorded mass density, one value per entry.
Field: numeric (kg/m3). Do not append units.

Sample answers from the record:
COMPOUND | MEASUREMENT_UNITS | mass density
CCOC(C)=O [ethyl acetate] | kg/m3 | 895.1
CCCCOC(C)=O [butyl ethanoate] | kg/m3 | 875.6
O=S1(=O)CCCC1 [sulfolane] | kg/m3 | 1263.9

Shifting focus to the compound that follows.
Would you kindly share the measured mass density for CCCOC(C)=O [propyl ethanoate] ?
883.7
